Test system: PXR:RXRa (NR concentration 270 nM, RXRa partner concentration 90 nM)
Test: PBM binding z-score (relative to random genomic background probes); higher = stronger binding; sequences stand for … in GC…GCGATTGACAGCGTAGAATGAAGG
// FALSE strictly below 1 in PBM binding z-score; TRUE otherwise

Input line: Please tell me: is the sequence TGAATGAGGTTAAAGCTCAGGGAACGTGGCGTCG at or over 1 in terms of PBM binding z-score?
Output line: TRUE

Input line: Please tell me: is the sequence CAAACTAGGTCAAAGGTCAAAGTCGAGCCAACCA at or over 1 in terms of PBM binding z-score?
Output line: TRUE

Input line: Please tell me: is the sequence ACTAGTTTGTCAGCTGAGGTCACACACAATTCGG at or over 1 in terms of PBM binding z-score?
Output line: TRUE

Input line: Please tell me: is the sequence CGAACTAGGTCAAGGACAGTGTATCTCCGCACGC at or over 1 in terms of PBM binding z-score?
Output line: TRUE

Input line: Please tell me: is the sequence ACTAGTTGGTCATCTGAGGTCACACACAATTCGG at or over 1 in terms of PBM binding z-score?
Output line: TRUE

Input line: Please tell me: is the sequence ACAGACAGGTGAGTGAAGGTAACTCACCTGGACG at or over 1 in terms of PBM binding z-score?
Output line: FALSE

Input line: Please tell me: is the sequence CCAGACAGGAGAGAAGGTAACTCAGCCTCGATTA at or over 1 in terms of PBM binding z-score?
Output line: FALSE

Input line: Please tell me: is the sequence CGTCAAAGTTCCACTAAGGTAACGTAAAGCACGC at or over 1 in terms of PBM binding z-score?
Output line: FALSE

Input line: Please tell me: is the sequence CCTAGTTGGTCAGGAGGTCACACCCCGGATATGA at or over 1 in terms of PBM binding z-score?
Output line: TRUE

Input line: Please tell me: is the sequence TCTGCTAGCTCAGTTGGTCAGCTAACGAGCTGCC at or over 1 in terms of PBM binding z-score?
Output line: FALSE

Input line: Please tell me: is the sequence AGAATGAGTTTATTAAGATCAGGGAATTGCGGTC at or over 1 in terms of PBM binding z-score?
Output line: TRUE

Input line: Please tell me: is the sequence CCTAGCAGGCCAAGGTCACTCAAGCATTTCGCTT at or over 1 in terms of PBM binding z-score?
Output line: TRUE

###

System: RXRa DBDmut IVT, anti-RXR (DBD mutation: RXRa K156A/R161A, NR concentration 90 nM)
Assay: PBM binding z-score (relative to random genomic background probes); higher = stronger binding; sequences stand for … in GC…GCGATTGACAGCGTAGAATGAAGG
observation_type: PBM binding z-score
Field format: numeric only.

Input line: Requested field: PBM binding z-score. Item: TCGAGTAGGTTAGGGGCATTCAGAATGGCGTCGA
Output line: 0.45

Input line: Requested field: PBM binding z-score. Item: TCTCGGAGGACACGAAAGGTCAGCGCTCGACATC
Output line: 1.39

Input line: Requested field: PBM binding z-score. Item: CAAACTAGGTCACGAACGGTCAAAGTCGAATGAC
Output line: 1.66

Input line: Requested field: PBM binding z-score. Item: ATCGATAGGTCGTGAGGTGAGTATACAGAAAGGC
Output line: 0.0211

Input line: Requested field: PBM binding z-score. Item: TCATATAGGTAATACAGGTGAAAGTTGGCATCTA
Output line: 1.86

Input line: Requested field: PBM binding z-score. Item: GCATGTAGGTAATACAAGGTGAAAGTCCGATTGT
Output line: -0.332

###

System: RARa homodimer (NR concentration 270 nM)
Assay: PBM binding z-score (relative to random genomic background probes); higher = stronger binding; sequences stand for … in GC…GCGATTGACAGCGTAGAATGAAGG
observation_type: PBM binding z-score

Input line: Requested field: PBM binding z-score. Item: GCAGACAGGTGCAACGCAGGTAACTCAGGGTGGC
Output line: -1.09

Input line: Requested field: PBM binding z-score. Item: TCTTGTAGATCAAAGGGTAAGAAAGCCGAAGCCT
Output line: -0.0812

Input line: Requested field: PBM binding z-score. Item: TGATTGAGGTTATAAGATCAGGGAACGTTGCAAA
Output line: 0.232

Input line: Requested field: PBM binding z-score. Item: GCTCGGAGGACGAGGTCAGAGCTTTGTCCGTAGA
Output line: -1.37

Input line: Requested field: PBM binding z-score. Item: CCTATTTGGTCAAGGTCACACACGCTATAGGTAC
Output line: 2.51

Input line: Requested field: PBM binding z-score. Item: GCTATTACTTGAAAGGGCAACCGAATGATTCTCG
Output line: 0.826

Input line: Requested field: PBM binding z-score. Item: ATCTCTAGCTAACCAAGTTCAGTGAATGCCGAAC
Output line: 0.128

Input line: Requested field: PBM binding z-score. Item: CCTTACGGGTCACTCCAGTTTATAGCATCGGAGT
Output line: 0.603

Input line: Requested field: PBM binding z-score. Item: CCTACTGGGCCAAAGGTCGTTGATTCCAATGCTC
Output line: -0.377

Input line: Requested field: PBM binding z-score. Item: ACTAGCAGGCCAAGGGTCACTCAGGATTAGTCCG
Output line: 0.739

Input line: Requested field: PBM binding z-score. Item: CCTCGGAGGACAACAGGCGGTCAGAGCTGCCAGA
Output line: -0.034

Input line: Requested field: PBM binding z-score. Item: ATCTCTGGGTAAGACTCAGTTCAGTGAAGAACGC
Output line: 0.661

###

Exercise: for every item that follows, state its recorded PBM binding z-score.
Test system: PPARg:RXRa (NR concentration 180 nM, RXRa partner concentration 90 nM)
Test: PBM binding z-score (relative to random genomic background probes); higher = stronger binding; sequences stand for … in GC…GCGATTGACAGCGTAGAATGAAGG
Field format: numeric only.

Input line: Requested field: PBM binding z-score. Item: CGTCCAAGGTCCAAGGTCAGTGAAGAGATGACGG
Output line: 1.65

Input line: Requested field: PBM binding z-score. Item: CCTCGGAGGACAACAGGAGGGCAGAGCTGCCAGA
Output line: -0.101

Input line: Requested field: PBM binding z-score. Item: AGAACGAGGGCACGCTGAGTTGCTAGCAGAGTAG
Output line: 1.85

Input line: Requested field: PBM binding z-score. Item: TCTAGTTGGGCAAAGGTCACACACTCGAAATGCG
Output line: 10.4

Input line: Requested field: PBM binding z-score. Item: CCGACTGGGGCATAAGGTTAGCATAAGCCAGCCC
Output line: 1.7

Input line: Requested field: PBM binding z-score. Item: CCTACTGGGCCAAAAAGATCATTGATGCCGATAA
Output line: 0.525

Input line: Requested field: PBM binding z-score. Item: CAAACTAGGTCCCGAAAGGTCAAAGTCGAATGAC
Output line: 4.62

Input line: Requested field: PBM binding z-score. Item: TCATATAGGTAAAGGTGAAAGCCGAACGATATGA
Output line: 3.82

Input line: Requested field: PBM binding z-score. Item: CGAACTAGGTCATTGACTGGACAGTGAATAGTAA
Output line: 7.36

Input line: Requested field: PBM binding z-score. Item: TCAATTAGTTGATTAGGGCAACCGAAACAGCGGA
Output line: 0.217

Input line: Requested field: PBM binding z-score. Item: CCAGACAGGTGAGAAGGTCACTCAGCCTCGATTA
Output line: 2.01

Input line: Requested field: PBM binding z-score. Item: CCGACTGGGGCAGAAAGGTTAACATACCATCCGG
Output line: 1.92
